Target: human NaPi-2a (Homo sapiens, UniProt Q06495)
Sequence (Q06495 1-639): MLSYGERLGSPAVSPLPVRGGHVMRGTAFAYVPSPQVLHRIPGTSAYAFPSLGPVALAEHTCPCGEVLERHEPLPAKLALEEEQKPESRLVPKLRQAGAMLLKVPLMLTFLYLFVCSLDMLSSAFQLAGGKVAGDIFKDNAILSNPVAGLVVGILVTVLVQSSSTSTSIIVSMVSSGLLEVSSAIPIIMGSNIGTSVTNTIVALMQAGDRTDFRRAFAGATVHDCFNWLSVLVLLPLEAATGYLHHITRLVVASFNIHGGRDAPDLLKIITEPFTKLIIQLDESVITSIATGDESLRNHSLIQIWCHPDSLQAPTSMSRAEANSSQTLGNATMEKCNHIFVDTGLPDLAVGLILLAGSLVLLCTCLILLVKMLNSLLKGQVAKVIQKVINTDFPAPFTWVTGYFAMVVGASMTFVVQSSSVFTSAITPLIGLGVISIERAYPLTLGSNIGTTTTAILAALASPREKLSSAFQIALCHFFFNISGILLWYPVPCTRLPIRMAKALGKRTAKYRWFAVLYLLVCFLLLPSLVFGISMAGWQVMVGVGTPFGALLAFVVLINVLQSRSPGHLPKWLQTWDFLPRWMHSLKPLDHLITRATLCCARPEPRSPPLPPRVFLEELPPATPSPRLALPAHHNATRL
Test: Sodium-dependent phosphate uptake of Xenopus oocytes which expressed NaPi-2a (32P)
Conditions: phosphate uptake, Xenopus oocytes expressing human NaPi-2a; five concentration levels
pIC50: −log10 of the molar value.
We use 5 as the dividing line for pIC50: on or above the line is TRUE, below is FALSE.

{"QUERY SMILES": "Cc1ccc(/C=N/NC(=O)c2cc(N3CCCCC3)ccc2NC(=O)c2cccc(CSCCC(=O)O)c2)cc1C", "TARGET ENTITY": "human NaPi-2a (Homo sapiens, UniProt Q06495)", "LABEL": "TRUE"}
{"QUERY SMILES": "CCN(CC)CCN(CCN(CC)CC)Cc1cccc(C(=O)Nc2scc(C)c2C(=O)N/N=C/c2ccc(C)cc2)c1", "TARGET ENTITY": "human NaPi-2a (Homo sapiens, UniProt Q06495)", "LABEL": "FALSE"}
{"QUERY SMILES": "CCN(CC)CCN(C)Cc1cccc(C(=O)Nc2ccc(N3CCCCC3)cc2C(=O)N/N=C/c2ccc(OC)cc2)c1", "TARGET ENTITY": "human NaPi-2a (Homo sapiens, UniProt Q06495)", "LABEL": "TRUE"}
{"QUERY SMILES": "CCN(CC)CCN(C)Cc1cccc(C(=O)Nc2ccc(N3CCCCC3)cc2C(=O)N/N=C/c2ccc(F)cc2)c1", "TARGET ENTITY": "human NaPi-2a (Homo sapiens, UniProt Q06495)", "LABEL": "TRUE"}
{"QUERY SMILES": "Cc1csc(NC(=O)c2cccc(CN3CCC4(CC3)OCCO4)c2)c1C(=O)N/N=C/c1ccc(F)cc1", "TARGET ENTITY": "human NaPi-2a (Homo sapiens, UniProt Q06495)", "LABEL": "FALSE"}
{"QUERY SMILES": "Cc1ccc(/C=N/NC(=O)c2cc(N3CCCCC3)ccc2NC(=O)c2cccc(CN3CCN(CCO)CC3)c2)cc1", "TARGET ENTITY": "human NaPi-2a (Homo sapiens, UniProt Q06495)", "LABEL": "TRUE"}
